Values were extracted from patent US9834520B2.

target: RORγt (Homo sapiens); assay: Jurkat reporter test (IL-17 ROR response element luciferase); format: cell-based; parameters: expressed in transfected cells; host or cells: Jurkat cells; details: Jurkat, test compound 3 μM; Jurkat cells; read-out: luminescence level inhibitory rate (%)
Sequence (P51449 1-497 isoform P51449-2, species assumed): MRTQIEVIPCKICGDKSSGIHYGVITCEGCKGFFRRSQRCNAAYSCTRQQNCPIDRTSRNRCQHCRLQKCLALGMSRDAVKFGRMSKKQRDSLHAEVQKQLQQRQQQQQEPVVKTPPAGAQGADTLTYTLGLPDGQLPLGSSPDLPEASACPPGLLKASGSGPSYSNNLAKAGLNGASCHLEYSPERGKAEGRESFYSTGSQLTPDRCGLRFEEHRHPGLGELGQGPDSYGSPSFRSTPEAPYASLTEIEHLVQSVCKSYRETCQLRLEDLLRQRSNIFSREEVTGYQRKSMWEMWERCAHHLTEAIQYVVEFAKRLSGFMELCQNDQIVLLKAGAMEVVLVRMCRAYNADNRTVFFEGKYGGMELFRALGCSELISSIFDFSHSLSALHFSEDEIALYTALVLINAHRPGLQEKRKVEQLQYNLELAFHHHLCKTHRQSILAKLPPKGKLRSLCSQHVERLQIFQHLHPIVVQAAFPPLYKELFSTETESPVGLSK
For each entry below, report its inhibition at 3 µM value.
Reply with just the number (in %).

IN: Name the recorded inhibition at 3 µM for CCn1c(=O)n(CSC)c(=O)c2cc(NC(=O)CC(C)CC(=O)Nc3ccc(C#N)c(Cl)c3)ccc21 (stereo not shown) .
OUT: 102

IN: Name the recorded inhibition at 3 µM for C#CCn1c(=O)c2cc(NC(=O)CC(C)CC(=O)Nc3ccc(C#N)c(Cl)c3)ccc2n(CC)c1=O (stereo not shown) .
OUT: 115

IN: Name the recorded inhibition at 3 µM for CCn1c(=O)n(C[Si](C)(C)C)c(=O)c2cc(NC(=O)CC(C)CC(=O)Nc3ccc(C#N)c(Cl)c3)ccc21 (stereo not shown) .
OUT: 114

IN: Name the recorded inhibition at 3 µM for CC(CC(=O)Nc1ccc(C#N)c(Cl)c1)CC(=O)Nc1cc2c(=O)n(CC3CC3)c(=O)n(CC3CC3)c2cn1 (stereo not shown) .
OUT: 96.5

IN: Name the recorded inhibition at 3 µM for CCn1c(=O)n(CCCOC)c(=O)c2cc(NC(=O)CC(C)CC(=O)Nc3ccc(C#N)c(Cl)c3)ccc21 (stereo not shown) .
OUT: 118

IN: Name the recorded inhibition at 3 µM for CCN1C(=O)C(c2ccccc2)Oc2cc(NC(=O)CC(C)CC(=O)Nc3ccc(C#N)c(Cl)c3)ccc21 (stereo not shown) .
OUT: 120

IN: Name the recorded inhibition at 3 µM for CC(O)(CC(=O)Nc1ccc(C#N)c(Cl)c1)CC(=O)Nc1ccc2c(c1)c(=O)n(CC1CC1)c(=O)n2CC1CC1 (stereo not shown) .
OUT: 104

IN: Name the recorded inhibition at 3 µM for CC(CC(=O)Nc1ccc(C#N)c(Cl)c1)CC(=O)Nc1ccc2c(c1)c(=O)n(CC1CC1)c(=O)n2C(C)C (stereo not shown) .
OUT: 103

IN: Name the recorded inhibition at 3 µM for CCn1c(=O)c2cc(NC(=O)CC(C)CC(=O)Nc3ccc(C#N)c(Cl)c3)ncc2n(CC)c1=O (stereo not shown) .
OUT: 100

IN: Name the recorded inhibition at 3 µM for CCn1c(=O)c2cc(NC(=O)CC(C)CC(=O)Nc3ccc(C#N)c(Cl)c3)ccc2n(C[Si](C)(C)C)c1=O (stereo not shown) .
OUT: 102

IN: Name the recorded inhibition at 3 µM for CC(CC(=O)Nc1ccc(C#N)c(Cl)c1)CC(=O)Nc1ccc2c(c1)C(=O)N(CC1CC1)C(=O)C21CCCC1 (stereo not shown) .
OUT: 103

IN: Name the recorded inhibition at 3 µM for CCn1c(=O)n(CCOC)c(=O)c2cc(NC(=O)CC(C)CC(=O)Nc3ccc(C#N)c(Cl)c3)ccc21 (stereo not shown) .
OUT: 116

IN: Name the recorded inhibition at 3 µM for CCn1c(=O)n(COC)c(=O)c2cc(NC(=O)CC(C)CC(=O)Nc3ccc(C#N)c(Cl)c3)ccc21 (stereo not shown) .
OUT: 115

IN: Name the recorded inhibition at 3 µM for CCn1c(=O)c2cc(NC(=O)CC(C)CC(=O)Nc3ccc(C#N)c(Cl)c3)cc(F)c2n(CC)c1=O (stereo not shown) .
OUT: 102

IN: Name the recorded inhibition at 3 µM for CCn1c(=O)c2cc(NC(=O)CC(C)CC(=O)Nc3ccc(C#N)c(Cl)c3)c(F)cc2n(CC)c1=O (stereo not shown) .
OUT: 101

IN: Name the recorded inhibition at 3 µM for "CCn1c(=O)n(CC2CC2)c(=O)c2cc(NC(=O)CC[C@@H](O)C(=O)Nc3ccc(C#N)c(Cl)c3)ccc21" .
OUT: 104

IN: Name the recorded inhibition at 3 µM for CCN1Cc2cc(NC(=O)CC(C)CC(=O)Nc3ccc(C#N)c(Cl)c3)ccc2N(CC)C1=O (stereo not shown) .
OUT: 117

IN: Name the recorded inhibition at 3 µM for CC(CNC(=O)c1cc2c(=O)n(CC3CC3)c(=O)n(CC3CC3)c2cn1)CC(=O)Nc1ccc(C#N)c(Cl)c1 (stereo not shown) .
OUT: 97.7

IN: Name the recorded inhibition at 3 µM for CC(C)n1c(=O)n(CC2CC2)c(=O)c2cc(NC(=O)CC(C)(O)CC(=O)Nc3ccc(C#N)c(Cl)c3)ccc21 (stereo not shown) .
OUT: 103

IN: Name the recorded inhibition at 3 µM for CCn1c(=O)n(C2CC2)c(=O)c2cc(NC(=O)CC(C)CC(=O)Nc3ccc(C#N)c(Cl)c3)ccc21 (stereo not shown) .
OUT: 122

IN: Name the recorded inhibition at 3 µM for CCn1c(=O)c2cc(NC(=O)CC(C)CC(=O)Nc3ccc(C#N)c(Cl)c3)ccc2n(CSC)c1=O (stereo not shown) .
OUT: 102

IN: Name the recorded inhibition at 3 µM for "CCn1c(=O)n(CC2CC2)c(=O)c2cc(NC(=O)CC[C@H](O)C(=O)Nc3ccc(C#N)c(Cl)c3)ccc21" .
OUT: 104

IN: Name the recorded inhibition at 3 µM for CCn1c(=O)c2cc(C(=O)NCC(C)CC(=O)Nc3ccc(C#N)c(Cl)c3)ccc2n(CC)c1=O (stereo not shown) .
OUT: 116

IN: Name the recorded inhibition at 3 µM for "CCn1c(=O)n(CC2CC2)c(=O)c2cc(NC(=O)[C@@H](O)CCC(=O)Nc3ccc(C#N)c(Cl)c3)ccc21" .
OUT: 103

IN: Name the recorded inhibition at 3 µM for CCn1c(=O)c2cc(C(=O)NCC(CC(=O)Nc3ccc(C#N)c(Cl)c3)C(C)C)ccc2n(CC)c1=O (stereo not shown) .
OUT: 121
